Just for reference, patent US12060333B2 is where these values come from.

Measured IC50 by item
- targetEntity: MERS-CoV 3CLpro (Middle East respiratory syndrome-related coronavirus)
- Sequence (K9N7C7 3248-3553): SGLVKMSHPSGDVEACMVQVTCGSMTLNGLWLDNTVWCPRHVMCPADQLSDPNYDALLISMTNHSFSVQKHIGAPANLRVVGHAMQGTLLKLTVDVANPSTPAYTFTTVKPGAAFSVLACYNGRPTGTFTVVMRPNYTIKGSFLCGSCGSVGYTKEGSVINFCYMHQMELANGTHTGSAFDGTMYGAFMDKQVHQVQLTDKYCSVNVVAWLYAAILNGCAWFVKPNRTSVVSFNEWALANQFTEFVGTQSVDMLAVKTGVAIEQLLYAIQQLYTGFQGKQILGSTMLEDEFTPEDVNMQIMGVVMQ
Record the value in µM, omitting the unit from your answer.

Check out these entries, answers already filled in.
>  <compound>
CC(C)C[C@H](NC(=O)c1cc2ccccc2[nH]1)C(=O)NN(CCC(N)=O)C(=O)CCl

>  <IC50 [µM]>
0.05

$$$$
>  <compound>
CC1(C[C@H](NC(=O)c2cc(C(F)F)on2)C(=O)NN(C[C@@H]2CCNC2=O)C(=O)[C@H](F)Cl)CC1

>  <IC50 [µM]>
0.094

$$$$
>  <compound>
Cc1cc(C(=O)N[C@@H](CCC(C)C)C(=O)NN(C[C@@H]2CCNC2=O)C(=O)[C@H](F)Cl)no1

>  <IC50 [µM]>
0.32

$$$$

Asked: Given the entry Cc1cc(C(=O)N[C@@H](CC2(C)CC2)C(=O)NN(C[C@@H]2CCNC2=O)C(=O)[C@H](F)Cl)no1 , what IC50 was observed with MERS-CoV 3CLpro (Middle East respiratory syndrome-related coronavirus)?
Given back: 0.054

Asked: Given the entry CC(C)C[C@H](NC(=O)c1cc2ccccc2[nH]1)C(=O)NN(C[C@@H]1CCNC1=O)C(=O)CCl (single isomer, unassigned) , what IC50 was observed with MERS-CoV 3CLpro (Middle East respiratory syndrome-related coronavirus)?
Given back: 0.06

---

Measured IC50 by item
- targetEntity: SARS-CoV-2 3CLpro (Severe acute respiratory syndrome coronavirus 2, UniProt P0DTD1)
- assayText: biochemical
- conditionSet: IC50 (μM), SARS-CoV-2 3CLPro assay
Record the value in µM, omitting the unit from your answer.

>  <molecule>
CC(C)C[C@H](NC(=O)c1cc2ccccc2[nH]1)C(=O)NN(C[C@H]1CCNC1=O)C(=O)CF (single isomer, unassigned)

>  <numericReadout>
3.16

$$$$
>  <molecule>
CC(C)C[C@H](NC(=O)c1cc2cc(Cl)ccc2[nH]1)C(=O)NN(CCC(N)=O)C(=O)[C@@H](F)Cl (racemic)

>  <numericReadout>
0.032

$$$$
>  <molecule>
NC(=O)CCN(NC(=O)[C@H](CC1CCCCC1)NC(=O)OCc1ccccc1)C(=O)C(F)Cl (stereo partly shown)

>  <numericReadout>
0.009

$$$$

Asked: Using the record for COc1cccc2[nH]c(C(=O)NC(CC(C)C)C(=O)NN(CCC(N)=O)C(=O)[C@@H](F)Cl)cc12 (mixture of isomers) , report its IC50.
Given back: 0.004

---

Measured IC50 by item
- targetEntity: SARS-CoV-2 3CLpro (Severe acute respiratory syndrome coronavirus 2, UniProt P0DTD1)
- assayText: biochemical
- conditionSet: read-out: IC50 (μM), SARS-CoV-2 3CLPro assay
Record the value in µM, omitting the unit from your answer.

>  <compound>
CC(C)C[C@H](NC(=O)c1cc2cnccc2[nH]1)C(=O)NN(CCC(N)=O)C(=O)CCl

>  <targetEntity>
SARS-CoV-2 3CLpro (Severe acute respiratory syndrome coronavirus 2, UniProt P0DTD1)

>  <IC50, µM>
0.014

$$$$
>  <compound>
CC(C)C[C@H](NC(=O)OCc1ccccc1)C(=O)NN(CCC(N)=O)C(=O)CBr

>  <targetEntity>
SARS-CoV-2 3CLpro (Severe acute respiratory syndrome coronavirus 2, UniProt P0DTD1)

>  <IC50, µM>
0.54

$$$$
>  <compound>
COc1cccc2[nH]c(C(=O)N[C@@H](CC(C)C)C(=O)NN(CCC(N)=O)C(=O)C(F)Cl)cc12 (stereo partly shown)

>  <targetEntity>
SARS-CoV-2 3CLpro (Severe acute respiratory syndrome coronavirus 2, UniProt P0DTD1)

>  <IC50, µM>
0.015

$$$$

Now examine the next entry.
Asked: Using the record for NC(=O)CCN(NC(=O)CNC(=O)OCc1ccccc1)C(=O)CCl , report its IC50.
Given back: 4.59

---

- targetEntity: SARS-CoV-2 3CLpro (Severe acute respiratory syndrome coronavirus 2)
- assayText: biochemical
- conditionSet: IC50 (μM), SARS-CoV-2 3CLPro assay
Measured IC50 by item
Record the value in µM, omitting the unit from your answer.

Check out these entries, answers already filled in.
>  <compound>
CC(C)C[C@H](NC(=O)OCc1ccccc1)C(=O)NN(CCC(N)=O)C(=O)[C@H](F)Cl (single isomer, unassigned)

>  <numericReadout>
0.077

$$$$
>  <compound>
CC(C)C[C@H](NC(=O)OCc1ccccc1)C(=O)NN(CCC(N)=O)C(=O)[C@@H](F)Cl (single isomer, unassigned)

>  <numericReadout>
1.63

$$$$
>  <compound>
COc1cc2cc(C(=O)N[C@@H](CC(C)C)C(=O)NN(CCC(N)=O)C(=O)C(F)Cl)[nH]c2cn1 (mixture of isomers)

>  <numericReadout>
0.019

$$$$
>  <compound>
NC(=O)CCN(NC(=O)[C@H](CC1CCCCC1)NC(=O)OCc1ccccc1)C(=O)[C@H](F)Cl (single isomer, unassigned)

>  <numericReadout>
0.002

$$$$
>  <compound>
CC(C)C[C@H](NC(=O)c1nc2cc(Cl)ccc2[nH]1)C(=O)NN(CCC(N)=O)C(=O)[C@@H](F)Cl (racemic)

>  <numericReadout>
0.008

$$$$

Asked: Using the record for CC(C)C[C@H](NC(=O)c1cc2cc(Cl)ccc2[nH]1)C(=O)NN(CCC(N)=O)C(=O)[C@H](F)Cl (racemic) , report its IC50.
Given back: 0.007

Asked: Using the record for Cc1cc(C(=O)N[C@@H](CC(C)C)C(=O)NN(CCC(N)=O)C(=O)CCl)no1 , report its IC50.
Given back: 0.034

Asked: Using the record for CC(C)C[C@H](NC(=O)c1cc2ccccc2[nH]1)C(=O)NN(CCC(N)=O)C(=O)CF , report its IC50.
Given back: 0.65

Asked: Using the record for NC(=O)CCN(NC(=O)[C@H](CC1CCC1)NC(=O)c1cnccn1)C(=O)C(F)Cl (mixture of isomers) , report its IC50.
Given back: 0.15

Asked: Using the record for CC(C)CC(NC(=O)c1cn2ccccc2n1)C(=O)NN(CCC(N)=O)C(=O)C(F)Cl (racemic) , report its IC50.
Given back: 0.65

Asked: Using the record for CC(C)C[C@H](NC(=O)/C=C/c1ccccc1)C(=O)NN(CCC(N)=O)C(=O)[C@@H](F)Cl (single isomer, unassigned) , report its IC50.
Given back: 0.023

Asked: Using the record for Cc1cc(C(=O)N[C@@H](CC23CC(C2)C3)C(=O)NN(C[C@@H]2CCNC2=O)C(=O)[C@H](F)Cl)no1 , report its IC50.
Given back: 0.11

Asked: Using the record for COc1cccc2[nH]c(C(=O)N[C@@H](CC(C)C)C(=O)NN(CCC(N)=O)C(=O)CCl)cc12 , report its IC50.
Given back: 0.006

Asked: Using the record for CC(C)C[C@H](NC(=O)OCc1ccccc1)C(=O)NN(CC1CCCNC1=O)C(=O)CCl (some centres unmarked) , report its IC50.
Given back: 0.0046

---

- targetEntity: SARS-CoV-2 3CLpro (Severe acute respiratory syndrome coronavirus 2, UniProt P0DTD1)
- assayText: biochemical
- conditionSet: read-out: IC50 (μM), SARS-CoV-2 3CLPro assay
reportedProperty: IC50 (µM)
Record the value in µM, omitting the unit from your answer.

>  <compound>
CN(C(=O)c1cc2ccccc2[nH]1)[C@@H](CC1CCCCC1)C(=O)NN(CCC(N)=O)C(=O)CCl [Example 39]

>  <numericReadout>
0.002

$$$$
>  <compound>
Cc1cc(C(=O)N[C@@H](CCC(C)C)C(=O)NN(C[C@@H]2CCNC2=O)C(=O)[C@H](F)Cl)no1 [Example 101]

>  <numericReadout>
0.09

$$$$
>  <compound>
CC(C)C[C@H](NC(=O)OCc1ccccc1)C(=O)NN(Cc1cc[nH]n1)C(=O)CCl [Example 23]

>  <numericReadout>
0.034

$$$$
>  <compound>
CCC(Cl)C(=O)N(CCC(N)=O)NC(=O)[C@H](CC(C)C)NC(=O)OCc1ccccc1 (stereo partly shown) [Example 5]

>  <numericReadout>
1.76

$$$$
>  <compound>
NC(=O)CCN(NC(=O)[C@H](CC1CCCCC1)NC(=O)c1cc2ccccc2[nH]1)C(=O)CCl [Example 35]

>  <numericReadout>
0.002

$$$$
>  <compound>
O=C(N[C@@H](CC12CC(C1)C2)C(=O)NN(C[C@@H]1CCNC1=O)C(=O)[C@H](F)Cl)c1cc(C(F)(F)F)on1 [Example 99]

>  <numericReadout>
0.071

$$$$
>  <compound>
CCCN(NC(=O)[C@H](CC(C)C)NC(=O)OCc1ccccc1)C(=O)CCl [Example 21]

>  <numericReadout>
0.39

$$$$
>  <compound>
CC(C)C[C@H](NC(=O)c1cc2ccccn2n1)C(=O)NN(CCC(N)=O)C(=O)C(F)Cl (mixture of isomers) [Example 90]

>  <numericReadout>
0.073

$$$$
>  <compound>
CC(C)C[C@H](NC(=O)c1cc2cccnc2[nH]1)C(=O)NN(CCC(N)=O)C(=O)CCl [Example 44]

>  <numericReadout>
0.017

$$$$
>  <compound>
NC(=O)CCN(NC(=O)[C@H](CC1CCCCC1)NC(=O)c1cc2ccccc2[nH]1)C(=O)CF [Example 36]

>  <numericReadout>
0.14

$$$$

Asked: Given the entry NC(=O)CCN(NC(=O)[C@H](CC1CCCC1)NC(=O)OCc1ccccc1)C(=O)CCl [Example 10] , what IC50 was observed with SARS-CoV-2 3CLpro (Severe acute respiratory syndrome coronavirus 2, UniProt P0DTD1)?
Given back: 0.006

Asked: Given the entry Cc1nc(C(=O)N[C@@H](CC(C)C)C(=O)NN(CCC(N)=O)C(=O)CCl)co1 [Example 45] , what IC50 was observed with SARS-CoV-2 3CLpro (Severe acute respiratory syndrome coronavirus 2, UniProt P0DTD1)?
Given back: 0.046

Asked: Given the entry CC(C)C[C@H](NC(=O)c1cc2ccccc2[nH]1)C(=O)NN(CCC(N)=O)C(=O)CCl [Example 28] , what IC50 was observed with SARS-CoV-2 3CLpro (Severe acute respiratory syndrome coronavirus 2, UniProt P0DTD1)?
Given back: 0.007

Asked: Given the entry NC(=O)CCN(NC(=O)[C@H](CC1CCCCC1)NC(=O)c1cc2ccccc2[nH]1)C(=O)[C@@H](F)Cl [Example 59-A] , what IC50 was observed with SARS-CoV-2 3CLpro (Severe acute respiratory syndrome coronavirus 2, UniProt P0DTD1)?
Given back: 0.023

Asked: Given the entry NC(=O)CCN(NC(=O)[C@H](CC1CCCCC1)NC(=O)/C=C/c1ccc(Cl)cc1F)C(=O)CCl [Example 33] , what IC50 was observed with SARS-CoV-2 3CLpro (Severe acute respiratory syndrome coronavirus 2, UniProt P0DTD1)?
Given back: 0.002

Asked: Given the entry COc1cc2cc(C(=O)N[C@@H](CC(C)C)C(=O)NN(CCC(N)=O)C(=O)CCl)nc-2c[nH]1 [Example 47] , what IC50 was observed with SARS-CoV-2 3CLpro (Severe acute respiratory syndrome coronavirus 2, UniProt P0DTD1)?
Given back: 0.014

Asked: Given the entry CC(C)C[C@@H](C(=O)NN(CCC(N)=O)C(=O)CCl)N(C)C(=O)c1cc2ccccc2[nH]1 [Example 40] , what IC50 was observed with SARS-CoV-2 3CLpro (Severe acute respiratory syndrome coronavirus 2, UniProt P0DTD1)?
Given back: 0.007
